Sourced from patent US10112978B2

# Tested on: THP-1 cells
# ASSAY_NOTES: CD86 and CD54 expression in THP-1 cells (flow cytometry, RFI)
# Assay type: cell-based, human
# CONDITION_DETAILS: overnight culture, relative fluorescence intensity
ENDPOINT_NAME: expression of CD86

1. ELKLIFLHRLKRLRKR [AAP-2, C-terminal LKRK of OSK-1 deleted]; considerably less active
2. ELKLIFLHRLKRLR [AAP-3, C-terminal KRLKRK of OSK-1 deleted]; considerably less active

###

# Test system: THP-1 cells
# ASSAY_NOTES: CD86 and CD54 expression in THP-1 cells (flow cytometry, RFI)
# Assay type: cell-based, human
# CONDITION_DETAILS: overnight culture, relative fluorescence intensity
ENDPOINT_NAME: expression of CD54

1. ELKLIFLHRLKRLR [AAP-3, C-terminal KRLKRK of OSK-1 deleted]; considerably less active
2. ELKLIFLHRLKRLRKR [AAP-2, C-terminal LKRK of OSK-1 deleted]; considerably less active
